Target: T1, purified recombinant RSV-Gb protein (Sino Biologics) (Respiratory Syncytial Virus subtype B, …, UniProt O36633 67-299)
T1 sequence: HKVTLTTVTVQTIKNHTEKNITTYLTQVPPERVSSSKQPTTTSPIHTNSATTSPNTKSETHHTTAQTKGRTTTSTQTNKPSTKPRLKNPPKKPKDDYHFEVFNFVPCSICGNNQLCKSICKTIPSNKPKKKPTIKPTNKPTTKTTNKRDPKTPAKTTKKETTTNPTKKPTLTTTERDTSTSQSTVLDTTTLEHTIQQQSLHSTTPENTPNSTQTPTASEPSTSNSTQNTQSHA
Assay: SPR (IBIS MX96), IgG captured on anti-human IgG, RSV Gb injected
Here the recorded koff is given for each entry.
Property name: koff

INSERT INTO assay_data (binder, recorded_result) VALUES
  ('AT49 (antibody, V domains shown) VH: QVLLVQSGAEIKKPGSSVKISCKASGGTFSSLALNWVRQAPGQGLQWMGGIIPLFGTQNYAQKFQGRVTITADESTSTAYMELSGLRPEDTAVYYCALFLWFGDQTSDDGFDVWGQGTVVTVSS VL: DIVMTQSPLSLTVTPGEPASISCRSSQSLLHGNGYKYLHWYLQKPGQSPQLLIYLGSNRASGVPARFSGSGSDTDFTLKISTVETEDVGVYYCMQALQSPTFGQGTKVEIKR', '5e-05 s⁻¹'),
  ('AT42 (antibody, V domains shown) VH: QVQLQESGPGLVQPSETLSLTCTVSGDSITSNVYYWGWIRQPPGKGLEWIGSIFHSGITHYTPSLNSRVTISVDTSKNQFSLRLSSATAADTAVYYCARHWAGLYFDSWGQGALVAVSS VL: EIVLTQSPGTLSLSPGERATLSCRASQTVSSSHLAWYQQKPGQAPRLLIHGSSSRATGIPERFSGSGSGPDFTLTISRLKPEDFAVYYCQYYGDSPGSFGEGTKVEIKR', '0.0001 s⁻¹'),
  ('AT44 (antibody, V domains shown) VH: QVQLQASGPGLVKPSETLSLTCNVSGYSVSSGHYWAWVRQSPGKGLEWIGGIHHSGSTYTNPPLKSRVSISIDTSKNQFSLRLTSVTAADTAVYFCARDLYDLSTGPFWFDPWGQGTLVTVSS VL: EIVMTQSPATLSVSPGERVTLSCRASQSVSTKVVWYQQKFGQAPRLLIYGASTRATGIPVRFSGSGSGTEFTLTISSLQSEDLAVYFCQQYNKWPMYTFGQGTKLEIKR', '4e-05 s⁻¹');
